These entries and their values trace back to paper PMC13580404.

- Test system: T1, oxidized RPN13 Pru (1–150) (UniProt Q16186 1-150, oxidized with 0.05% H2O2; the residues are not told)
- T1 construct: RPN13 Pru domain, residues 1-150; also called oxi RPN13^Pru; oxi-RPN13^Pru; source: E. coli BL21(DE3) pLysS, purified; oxidized with 0.05% H2O2 on ice for 10 min; not shown: His6, N-terminal, cleaved
- T1 sequence (Q16186 1-150): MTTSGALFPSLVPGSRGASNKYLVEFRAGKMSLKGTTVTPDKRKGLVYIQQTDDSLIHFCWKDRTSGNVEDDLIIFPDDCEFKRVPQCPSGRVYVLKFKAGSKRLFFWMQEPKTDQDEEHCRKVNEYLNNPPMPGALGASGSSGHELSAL
- Run description: ITC; RPN13 Pru in the cell (15.6, 20.57 or 16 μM), RPN2 (940–953) in the syringe; 25°C; 20 mM sodium phosphate, 50 mM NaCl, pH 6.0, with 10 mM βME (reducing) or without (non-reducing); one-site fit
- Run parameters: both partners purified
pKd: −log10 of the molar value.
Quantity measured: pKd

1. QEPEPPEPFEYIDD (peptide, UniProt Q99460 940-953, looked up, Eluted from the resin as GST-RPN2 (940–953); also called RPN2 peptide; GST-RPN2 (940–953); source: E. coli BL21(DE3) pLysS, purified (glutathione resin, eluted with reduced glutathione, Superdex 75)) [RPN2 (940–953)] | 7.40
